Data origin, for the record: patent US7196110B2

The entries below are paired with their reported pIC50.
- targetUnderTest: PDGF-receptor beta enzyme comprising the tyrosine kinase domain (Homo sapiens, UniProt P09619)
- Construct: from amino acid 545 to 1106 of GenBank Access NO: AAA36427
- Sequence (P09619 545-1106): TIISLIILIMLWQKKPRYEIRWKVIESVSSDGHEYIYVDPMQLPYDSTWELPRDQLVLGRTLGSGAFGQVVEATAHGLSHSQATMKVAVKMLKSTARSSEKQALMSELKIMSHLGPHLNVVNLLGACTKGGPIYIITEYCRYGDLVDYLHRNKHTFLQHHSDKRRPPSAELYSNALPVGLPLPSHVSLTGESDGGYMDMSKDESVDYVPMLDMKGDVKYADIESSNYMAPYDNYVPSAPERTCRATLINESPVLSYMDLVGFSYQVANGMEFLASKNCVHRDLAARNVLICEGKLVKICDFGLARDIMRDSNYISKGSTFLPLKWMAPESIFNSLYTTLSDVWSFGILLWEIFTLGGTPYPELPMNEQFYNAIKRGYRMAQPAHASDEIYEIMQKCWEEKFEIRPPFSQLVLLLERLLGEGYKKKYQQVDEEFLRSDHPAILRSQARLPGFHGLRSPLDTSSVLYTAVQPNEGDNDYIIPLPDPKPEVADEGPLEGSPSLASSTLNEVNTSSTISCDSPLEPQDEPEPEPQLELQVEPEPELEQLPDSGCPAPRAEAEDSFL
- testName: Inhibition of PDGF-receptor kinase activity (cell-free, PLC1 peptide, 33P Flashplate)
- Assay type: biochemical
- conditionInfo: PDGF-R kinase activity; read-out: IC50
pIC50: −log10 of the molar value.
measuredEndpoint: pIC50

> print(dat)
                                   molecule   val
1  CC1c2ccccc2-c2n[nH]c(Nc3cccc(C(F)(F)F)c3)c21 (stereo not drawn) [Compound 114]  5.86
2  COC(=O)c1cccc(Nc2[nH]nc3c2Cc2cc(OCCCN4CCOCC4)c(OC)cc2-3)c1 [Compound 133]  7.42
3  c1ccc(Nc2[nH]nc3c2CCc2sccc2-3)cc1 [Compound 52]  5.62
